# Measurement target: T1, human TMEM106B (human, UniProt Q9NUM4 2-274)
# T1 construct: Full-length, on transiently transfected HEK293 cells, or natively expressed on HeLa, U251 and A549 cells; also called huTMEM106B; huTMEM
# Assay text: FACS, HEK293 transfectants;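 note: hybridoma supernatants incubated 30 min on ice with human TMEM106B-expressing HEK293 cells, binding read as anti-mouse-APC median fluorescence on live cells, relative to secondary-antibody-only wells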
Assay endpoint: fold over negative controls

INSERT INTO results (binder, reported_measurement) VALUES
  ('anti-TMEM106B antibody TM-3 (antibody, V domains shown) VH: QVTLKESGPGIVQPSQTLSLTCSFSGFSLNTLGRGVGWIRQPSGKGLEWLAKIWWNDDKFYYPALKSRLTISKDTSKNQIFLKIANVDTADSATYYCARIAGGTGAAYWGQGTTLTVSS VL: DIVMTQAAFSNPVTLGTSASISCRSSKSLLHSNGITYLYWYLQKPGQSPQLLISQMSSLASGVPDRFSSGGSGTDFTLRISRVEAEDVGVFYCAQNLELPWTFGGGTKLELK', '> 2 fold');

(Q) Quick one: fold over negative controls for anti-TMEM106B antibody TM-16 (antibody, V domains shown) VH: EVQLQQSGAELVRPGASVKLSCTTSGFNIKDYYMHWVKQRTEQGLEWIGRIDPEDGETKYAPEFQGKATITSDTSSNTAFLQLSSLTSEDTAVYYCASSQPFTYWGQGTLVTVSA VL: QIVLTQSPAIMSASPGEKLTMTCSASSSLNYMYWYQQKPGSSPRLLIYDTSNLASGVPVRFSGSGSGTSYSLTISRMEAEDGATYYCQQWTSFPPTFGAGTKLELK ?
(A) > 2 fold

(Q) Value lookup for fold over negative controls; key = anti-TMEM106B antibody TM-11 (antibody, V domains shown) VH: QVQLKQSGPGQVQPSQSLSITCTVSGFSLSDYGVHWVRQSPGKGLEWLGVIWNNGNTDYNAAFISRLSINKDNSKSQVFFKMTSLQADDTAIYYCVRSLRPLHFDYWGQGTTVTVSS VL: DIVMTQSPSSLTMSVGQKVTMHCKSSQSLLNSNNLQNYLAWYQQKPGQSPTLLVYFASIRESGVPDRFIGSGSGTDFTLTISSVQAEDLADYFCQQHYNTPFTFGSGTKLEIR
(A) > 2 fold
